Reference for the values: patent US7601717B2

Assay: Pharmacokinetics and bioavailability, single intravenous or oral doses, partial Latin square crossover
Format: in vivo, male cynomolgus monkeys
Settings: male, cynomolgus monkey, plasma, po, 20 mg/kg, oral 5 and 20 mg/kg; read-out: absolute bioavailability of Val-BH4 present in plasma
Where a name gives a salt, the structure may show the parent alone.
READOUT_TYPE: bioavailability

Ask: Field request: bioavailability | item: CC(C)[C@H](N)C(=O)O[C@@H](C)[C@H](O)[C@H]1CNc2nc(N)[nH]c(=O)c2N1 [Example 5, dihydrochloride]
Result: 33 to 36%

----------
Assay: Pharmacokinetics and bioavailability, single intravenous or oral doses, partial Latin square crossover
Assay type: in vivo, male cynomolgus monkeys
Details: male, cynomolgus monkey, plasma; oral 40 mg/kg, n=6
READOUT_TYPE: AUC(0-inf) (µM·h)
Numbers only, in µM·h.

Ask: Field request: AUC(0-inf) | item: C[C@H](O)[C@H](O)[C@H]1CNc2nc(N)[nH]c(=O)c2N1 [BH4, Tetrahydrobiopterin, reference compound]
Result: 13.4

----------
Test: Pharmacokinetics and bioavailability, single intravenous or oral doses, partial Latin square crossover
Format: in vivo, male cynomolgus monkeys
Conditions: male, cynomolgus monkey, plasma; intravenous; title 5 mg/kg, text 2 mg/kg; n=6
Counter-ions that a name gives are not always drawn.
Would you kindly list Cmax for each of these compounds?
One number for each entry, in µM.

# COMPOUND, Cmax (µM)
rows = [
    ("C[C@H](O)[C@H](O)[C@H]1CNc2nc(N)[nH]c(=O)c2N1 [BH4, Tetrahydrobiopterin, reference compound]", 7.05),
]

Ask: Field request: Cmax | item: CC(C)[C@H](N)C(=O)O[C@@H](C)[C@H](O)[C@H]1CNc2nc(N)[nH]c(=O)c2N1 [Example 5, dihydrochloride]
Result: 13.1

----------
Assay: Pharmacokinetics and bioavailability, single intravenous or oral doses, partial Latin square crossover
Format: in vivo, male cynomolgus monkeys
Settings: male, cynomolgus monkey, plasma; intravenous; title 5 mg/kg, text 2 mg/kg; n=6
Structures can show the parent of a compound that is named as a salt.
READOUT_TYPE: AUC(0-inf) (µM·h)
Numbers only, in µM·h.

# MOLECULE, ASSAY_VALUE
data = [
    ("CC(C)[C@H](N)C(=O)O[C@@H](C)[C@H](O)[C@H]1CNc2nc(N)[nH]c(=O)c2N1 [Example 5, dihydrochloride]", 5.24),
]

Ask: Field request: AUC(0-inf) | item: C[C@H](O)[C@H](O)[C@H]1CNc2nc(N)[nH]c(=O)c2N1 [BH4, Tetrahydrobiopterin, reference compound]
Result: 6.96

----------
Assay: Pharmacokinetics and bioavailability, single intravenous or oral doses, partial Latin square crossover
Format: in vivo, male cynomolgus monkeys
Conditions: male, cynomolgus monkey, plasma; oral 40 mg/kg, n=6
READOUT_TYPE: Cmax (nM)
Give bare numbers, in nM.

Ask: Field request: Cmax | item: C[C@H](O)[C@H](O)[C@H]1CNc2nc(N)[nH]c(=O)c2N1 [BH4, Tetrahydrobiopterin, reference compound]
Result: 2330

----------
Experiment: Pharmacokinetics and bioavailability, single intravenous or oral doses, partial Latin square crossover
Assay type: in vivo, male cynomolgus monkeys
Conditions: male, cynomolgus monkey, plasma, po, 5 mg/kg, oral 5 mg/kg (BH4 equivalents), n=6; read-out: Absolute Bioavailability of the BH4 Analog
Counter-ions that a name gives are not always drawn.
READOUT_TYPE: bioavailability (%)
Answers are plain numbers, in %.

Ask: Field request: bioavailability | item: CC(C)[C@H](N)C(=O)O[C@@H](C)[C@H](O)[C@H]1CNc2nc(N)[nH]c(=O)c2N1 [Example 5, dihydrochloride]
Result: 36

----------
Assay: Pharmacokinetics and bioavailability, single intravenous or oral doses, partial Latin square crossover
Assay type: in vivo, male cynomolgus monkeys
Conditions: male, cynomolgus monkey, plasma; oral 40 mg/kg, n=6
READOUT_TYPE: AUC(0-t) (µM·h)
Give bare numbers, in µM·h.

Ask: Field request: AUC(0-t) | item: C[C@H](O)[C@H](O)[C@H]1CNc2nc(N)[nH]c(=O)c2N1 [BH4, Tetrahydrobiopterin, reference compound]
Result: 11.9

----------
Assay: Pharmacokinetics and bioavailability, single intravenous or oral doses, partial Latin square crossover
Assay type: in vivo, male cynomolgus monkeys
Conditions: male, cynomolgus monkey, plasma; oral 40 mg/kg, n=6
READOUT_TYPE: half-life
# answer = value followed by unit

Ask: Field request: half-life | item: C[C@H](O)[C@H](O)[C@H]1CNc2nc(N)[nH]c(=O)c2N1 [BH4, Tetrahydrobiopterin, reference compound]
Result: 5.9 h
